# test-target: Tryptophan 2,3-dioxygenase (Homo sapiens, UniProt P48775)
# Sequence (P48775 whole entry): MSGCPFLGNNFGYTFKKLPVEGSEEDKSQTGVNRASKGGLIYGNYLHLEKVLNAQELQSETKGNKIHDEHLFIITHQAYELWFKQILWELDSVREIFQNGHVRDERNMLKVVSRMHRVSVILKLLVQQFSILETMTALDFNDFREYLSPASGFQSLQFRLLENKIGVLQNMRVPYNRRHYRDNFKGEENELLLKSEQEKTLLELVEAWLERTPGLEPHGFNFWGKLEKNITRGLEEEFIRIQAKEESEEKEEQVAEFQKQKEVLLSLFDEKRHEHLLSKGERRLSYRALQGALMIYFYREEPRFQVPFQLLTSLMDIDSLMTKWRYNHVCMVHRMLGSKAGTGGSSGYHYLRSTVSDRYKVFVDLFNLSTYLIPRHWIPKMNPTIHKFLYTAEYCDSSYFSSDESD
# assay-explanation: Inhibition of TDO in human HEK cells
pIC50: −log10 of the molar value.
The following compounds are shown together with reported pIC50 values.

## Task Data request, read-out pIC50, for NS(=O)(=O)CC(=O)NCCSc1nonc1/C(=N/O)Nc1cccc(Cl)c1
## Result < 5.00

## Task Data request, read-out pIC50, for NS(=O)(=O)NCC(=O)NCCSc1nonc1/C(=N/O)Nc1ccc(F)c(C(F)F)c1
## Result < 5.00

----------
# assay-explanation: Oral bioavailability in rat at 5 mg/kg administered as single dose by capillary micro-sampling analysis
# Assay type: ADME, organism-based
# run-parameters: in vivo
property-measured: bioavailability (%)
// note: answer is a bare numeric in %

## Task Data request, read-out bioavailability, for NS(=O)(=O)CC(=O)NCCSc1nonc1/C(=N/O)Nc1cccc(Cl)c1
## Result 28
